Target: human glucocorticoid receptor (GR) (Homo sapiens (Human), UniProt P04150)
Sequence (P04150 whole entry): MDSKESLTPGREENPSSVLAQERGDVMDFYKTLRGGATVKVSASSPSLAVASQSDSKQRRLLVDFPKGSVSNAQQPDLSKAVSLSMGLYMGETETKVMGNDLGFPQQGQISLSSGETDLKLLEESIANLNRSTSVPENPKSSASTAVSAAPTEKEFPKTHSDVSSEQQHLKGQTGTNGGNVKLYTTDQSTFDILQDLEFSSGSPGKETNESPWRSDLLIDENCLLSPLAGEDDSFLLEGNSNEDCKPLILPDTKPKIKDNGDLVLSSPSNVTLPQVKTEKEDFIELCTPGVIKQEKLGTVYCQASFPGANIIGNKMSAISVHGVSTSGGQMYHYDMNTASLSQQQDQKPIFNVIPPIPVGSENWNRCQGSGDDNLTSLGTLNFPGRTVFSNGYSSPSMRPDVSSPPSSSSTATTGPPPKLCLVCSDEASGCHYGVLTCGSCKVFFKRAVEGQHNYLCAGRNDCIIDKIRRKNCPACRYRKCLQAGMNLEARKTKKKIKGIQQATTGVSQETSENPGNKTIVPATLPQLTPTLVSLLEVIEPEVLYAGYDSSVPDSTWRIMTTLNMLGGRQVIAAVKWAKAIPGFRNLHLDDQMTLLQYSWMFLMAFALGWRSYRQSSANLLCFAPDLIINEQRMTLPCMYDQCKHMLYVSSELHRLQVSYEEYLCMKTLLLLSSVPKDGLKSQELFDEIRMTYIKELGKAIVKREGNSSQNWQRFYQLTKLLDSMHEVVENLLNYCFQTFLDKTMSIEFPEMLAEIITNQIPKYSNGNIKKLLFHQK
Assay: GRE Antagonist Assay (ChagoK1 18:7:2 s4/GRE reporter cells pre-stimulated with dexamethasone)
Type: cell-based
Conditions: ChaGo-K-1; at 1 μM; relative to full antagonist effect of Mifepristone (RU486); read-out: TA antagonist Observed max Effect at 1 μM (%)
PROPERTY NAME: Emax at 1 µM (%)

>  <SMILES TEXT>
CC(C)[C@H](NC(=O)C(C)(F)F)[C@H](Oc1ccc2c(cnn2-c2ccc(=O)n(C)c2)c1)c1ccc(C(F)(F)F)cc1

>  <PROPERTY NAME>
Emax at 1 µM

>  <QUANTITATIVE RESULT>
51

$$$$
>  <SMILES TEXT>
CC(C)[C@H](NC(=O)C(C)(F)F)[C@H](Oc1ccc2c(cnn2-c2ccc(=O)n(C)c2)c1)c1cc(Cl)cc(Cl)c1

>  <PROPERTY NAME>
Emax at 1 µM

>  <QUANTITATIVE RESULT>
56

$$$$
>  <SMILES TEXT>
Cc1cc2c(cnn2-c2ccc(=O)n(C)c2)cc1O[C@H](c1ccccc1)[C@@H](NC(=O)C(C)(F)F)C(C)C

>  <PROPERTY NAME>
Emax at 1 µM

>  <QUANTITATIVE RESULT>
48

$$$$
>  <SMILES TEXT>
CC(C)[C@H](NC(=O)C(F)(F)F)[C@H](Oc1ccc2c(cnn2-c2ccc(=O)n(C)c2)c1)c1cccc(Cl)c1

>  <PROPERTY NAME>
Emax at 1 µM

>  <QUANTITATIVE RESULT>
67

$$$$
>  <SMILES TEXT>
CC(C)[C@H](NC(=O)C(F)(F)F)[C@H](Oc1ccc2c(cnn2-c2ccc(=O)n(C)c2)c1)c1ccc(OC(F)F)cc1

>  <PROPERTY NAME>
Emax at 1 µM

>  <QUANTITATIVE RESULT>
75

$$$$
>  <SMILES TEXT>
CC(C)[C@H](NC(=O)C(F)(F)F)[C@H](Oc1ccc2c(cnn2-c2ccc(=O)n(C)c2)c1)c1ccc(Cl)cc1

>  <PROPERTY NAME>
Emax at 1 µM

>  <QUANTITATIVE RESULT>
72

$$$$
>  <SMILES TEXT>
CC(C)[C@H](NC(=O)C(F)(F)F)[C@H](Oc1cc2cnn(-c3ccc(=O)n(C)c3)c2cc1Cl)c1ccccc1

>  <PROPERTY NAME>
Emax at 1 µM

>  <QUANTITATIVE RESULT>
56

$$$$
>  <SMILES TEXT>
CC(C)[C@H](NC(=O)C(F)(F)F)[C@H](Oc1ccc2c(cnn2-c2ccc(=O)n(C)c2)c1)c1cc(Cl)cc(Cl)c1

>  <PROPERTY NAME>
Emax at 1 µM

>  <QUANTITATIVE RESULT>
65

$$$$
>  <SMILES TEXT>
CCn1cc(-n2ncc3cc(O[C@H](c4ccccc4)[C@@H](NC(=O)C(C)(F)F)C(C)C)ccc32)ccc1=O

>  <PROPERTY NAME>
Emax at 1 µM

>  <QUANTITATIVE RESULT>
70

$$$$
>  <SMILES TEXT>
CC(C)[C@H](NC(=O)C(C)(F)F)[C@H](Oc1cc2cnn(-c3ccc(=O)n(C)c3)c2cc1Cl)c1ccccc1

>  <PROPERTY NAME>
Emax at 1 µM

>  <QUANTITATIVE RESULT>
48

$$$$
>  <SMILES TEXT>
CC(C)[C@H](NC(=O)C(C)(F)F)[C@H](Oc1ccc2c(cnn2-c2ccc(=O)n(C)c2)c1)c1cccc(Cl)c1

>  <PROPERTY NAME>
Emax at 1 µM

>  <QUANTITATIVE RESULT>
72

$$$$
>  <SMILES TEXT>
CC(C)[C@H](NC(=O)C(F)(F)F)[C@H](Oc1ccc2c(cnn2-c2ccc(=O)n(C)c2)c1)c1ccc(C(F)(F)F)cc1

>  <PROPERTY NAME>
Emax at 1 µM

>  <QUANTITATIVE RESULT>
64

$$$$
>  <SMILES TEXT>
CC(C)[C@H](NC(=O)C(C)(F)F)[C@H](Oc1ccc2c(cnn2-c2ccc(=O)n(C)c2)c1)c1ccc(Cl)cc1

>  <PROPERTY NAME>
Emax at 1 µM

>  <QUANTITATIVE RESULT>
54

$$$$
>  <SMILES TEXT>
CC(C)[C@H](NC(=O)C(F)(F)F)[C@H](Oc1ccc2c(cnn2-c2ccc(=O)n(C)c2)c1)c1ccccc1

>  <PROPERTY NAME>
Emax at 1 µM

>  <QUANTITATIVE RESULT>
67

$$$$
